Test system: P12-Ichikawa
Assay: cell viability relative to DMSO control; higher = less cytotoxic
Conditions: HPLM + 10% dialyzed FBS; 48 h; 15.4 µM
I'd appreciate it if you could supply cell viability values for the items below.
# do not omit the unit; it follows the number

Would you mind listing cell viability for each of the following compounds?
1. O=C(OC)[C@]12CC[C@@]3(C)[C@]4(C)CC[C@H]5[C@@](C)(C)C(=O)C(=C[C@]5(C)C4=CC(=O)[C@@H]3[C@@H]2C[C@](C)(C)CC1)C#N
2. CN1[C@@H]2CC[C@H]1CC(OC(=O)c1c[nH]c3ccccc13)C2 (stereo partly specified)
3. CC(N[C@H]1C[C@@H]1c1ccccc1)c1ccc2c(c1)OCCO2 (stereo partly specified)
4. COC1=CC=CC=C1C2=CC=CC(=C2)C/3=C(O)/C4=CC(=C(Cl)C=C4NC3=O)C#N
5. COc1ccc(C[C@@H](C)[C@@H](C)Cc2ccc(OC)c(OC)c2)cc1OC
6. CC1(C)O[C@@H]2C[C@H]3[C@@H]4CCC5=CC(=O)C=C[C@]5(C)[C@@]4(F)[C@@H](O)C[C@]3(C)[C@]2(C(=O)CO)O1
7. OC(=O)C1=CC=C(NC2=NC3=C(C\N=C(/C4=CC(=CC=C34)Cl)C5=C(F)C=CC=C5F)C=N2)C=C1
8. CNC1CCC(N(Cc2cccc(-c3ccncc3)c2)C(=O)c2sc3ccccc3c2Cl)CC1 (stereo unspecified)

Response line:
2.24%
114%
112%
6.7%
5.92%
18.5%
18.6%
1.97%

====

I'd appreciate it if you could supply cell viability values for the items below.
System: SEM cells
Experiment: cell viability relative to DMSO control; higher = less cytotoxic
Details: RPMI 5 mM glucose + 10% dialyzed FBS; 48 h; 0.00234 µM
Numbers only, in %.

These solved cases illustrate the format of a correct answer.
INSERT INTO measurements (compound, measurement_type, result_units, numeric_value) VALUES
  ('CC(NC1=CC=CC=C1)C\2=C\C(=C/N3C(=O)\C=C(/N=C23)N4CCOCC4)C (stereo not given)', 'cell viability', '%', 79.7),
  ('Cc1nc(NC(=O)N2CCC[C@H]2C(N)=O)sc1-c1ccnc(C(C)(C)C(F)(F)F)c1', 'cell viability', '%', 95.9),
  ('CC(=O)N(C)c1cccc(-c2ccnc3c(C(=O)c4cccs4)cnn23)c1', 'cell viability', '%', 99.7);

Would you mind listing cell viability for each of the following compounds?
1. C[C@]\12CC[C@H](O)CC1=C/CC3C2CC[C@@]\4(C)C3C\C=C4[N]5C=NC6=C5C=CC=C6 (stereo not given in full)
2. OC1=C(O)C2=C(\C=C/C(=O)O2)C=C1

Response line:
1: 88.9; 2: 101

====

Test system: P12-Ichikawa
Test: cell viability relative to DMSO control; higher = less cytotoxic
Settings: RPMI 5 mM glucose + 10% dialyzed FBS; 48 h; 0.000781 µM
Measurement type: cell viability (%)
Answers are plain numbers, in %.

INSERT INTO measurements (compound, target_desc, result_units, numeric_value) VALUES
  ('COC1=CC2=NC=CC(=C2C=C1)OC3=CN=C(NC(=O)C/4=C(C)/N(CC(C)(C)O)N(C4=O)C5=CC=CC=C5)C=C3', 'P12-Ichikawa', '%', 81.1),
  ('C/C=C1\NC(=O)[C@H]2CSSCC/C=C\[C@H](CC(=O)N[C@H](C(C)C)C(=O)N2)OC(=O)[C@H](C(C)C)NC1=O', 'P12-Ichikawa', '%', 98.9),
  ('COC[C@H]1OC(=O)C2=COC3=C2[C@@]1(C)\C4=C(C5CCC(=O)[C@@]5(C)C[C@H]4OC(C)=O)/C3=O (some centres undefined)', 'P12-Ichikawa', '%', 85.8);

The record that follows has no cell viability shown yet.
Per the records, this compound ( CN(C)c1ccc(O)c2c1C[C@H]1C[C@H]3[C@H](N(C)C)C(O)=C(C(N)=O)C(=O)[C@@]3(O)C(O)=C1C2=O ) has cell viability equal to 110

====

System: NOMO1
Assay: cell viability relative to DMSO control; higher = less cytotoxic
Settings: HPLM + 10% dialyzed FBS; 48 h; 0.0211 µM
I'd appreciate it if you could supply cell viability values for the items below.
Answers are plain numbers, in %.

Would you mind listing cell viability for each of the following molecules?
1. COc1cccc2cc(-c3nc(C4CCC(C(=O)O)CC4)n4ncnc(N)c34)[nH]c12 (centres undefined)
2. C#Cc1cccc(Nc2ncnc3cc(OCCOC)c(OCCOC)cc23)c1
3. COC1=C(N2CCNC(C)C2)C(=CC3=C1N(\C=C(C(O)=O)/C3=O)C4CC4)F (centres undefined)
4. N=C(CCSCc1csc(N=C(N)N)n1)N[S+](N)(=O)[O-]
5. O=C(NCC[S+](=O)([O-])c1ccc(C(F)(F)F)cn1)c1ccc(Cl)cc1
6. COC1=CC=CC=C1C2=CC=CC(=C2)C/3=C(O)/C4=CC(=C(Cl)C=C4NC3=O)C#N
7. CN1[C@@H]2CC(OC(=O)[C@@H](CO)c3ccccc3)C[C@H]1[C@H]1O[C@H]12 (some centres undefined)
8. COC[C@H]1OC(=O)C2=COC3=C2[C@@]1(C)\C4=C(C5CCC(=O)[C@@]5(C)C[C@H]4OC(C)=O)/C3=O (some centres undefined)

Response line:
1. 119
2. 83.7
3. 115
4. 101
5. 117
6. 109
7. 124
8. 36.5

Query CCCCn1c(=O)n(Cc2ccccc2F)c(=O)c2nc(Cc3ccc(NC(C)=O)cc3)[nH]c21 on NOMO1; cell viability returned: 24.9

====

Test system: SEM cells
Assay: cell viability relative to DMSO control; higher = less cytotoxic
Conditions: RPMI 5 mM glucose + 10% dialyzed FBS; 48 h; 0.0211 µM
Measurement type: cell viability (%)
Answers are plain numbers, in %.

These solved cases illustrate the format of a correct answer.
INSERT INTO results (molecule, numeric_value) VALUES
  ('COC1=C(N2CCNC(C)C2)C(=CC3=C1N(\C=C(C(O)=O)/C3=O)C4CC4)F (stereo unspecified)', 83.1),
  ('COC1=NC(=NC(=C1N\C2=N\CCN2)Cl)C', 102);

Would you mind listing cell viability for each of the following molecules?
1. COC1CCC(CC1)N(C(=O)C2CCC(C)CC2)C3=C(SC(=C3)\C4=C\CCCC4)C(O)=O (stereo unspecified)
2. O=C([O-])C(O)Cc1ccc(O)c(O)c1 (stereo unspecified)
3. CC(C)[C@@H](N(CCCN)C(=O)C1=CC=C(C)C=C1)C/2=N/C3=CC(=CC=C3C(=O)N2CC4=CC=CC=C4)Cl
4. CC1(C)CCC[C@]2(C)[C@H]3CC(=O)O[C@]3(C)CC[C@@H]12

Response line:
1: 128; 2: 96; 3: 15.7; 4: 126

====

Test system: P12-Ichikawa
Assay: cell viability relative to DMSO control; higher = less cytotoxic
Settings: RPMI 5 mM glucose + 10% dialyzed FBS; 48 h; 1.71 µM
Checkbox rule: cell viability lower than 80% = class 1; cell viability not lower than 80% = class 0.

Prompt line: Please indicate whether the reported cell viability of N=C(CCSCc1csc(N=C(N)N)n1)N[S+](N)(=O)[O-] is strictly below 80%.
Response line: class 0

====

Test system: NOMO1
Assay: cell viability relative to DMSO control; higher = less cytotoxic
Conditions: RPMI 5 mM glucose + 10% dialyzed FBS; 48 h; 0.00702 µM
I'd appreciate it if you could supply cell viability values for the items below.

INSERT INTO measurements (compound, target_desc, measurement_type, result) VALUES
  ('Nc1ccccc1NC(=O)c1ccc(CNC(=O)OCc2cccnc2)cc1', 'NOMO1', 'cell viability', '110%'),
  ('O=C([O-])C(O)Cc1ccc(O)c(O)c1 (stereo not drawn)', 'NOMO1', 'cell viability', '104%'),
  ('CC[C@H](CC[C@@H](C)[C@H]1CC[C@H]2[C@@H]3C\C=C/4C[C@@H](O)CC[C@]4(C)[C@H]3CC[C@]12C)C(C)C', 'NOMO1', 'cell viability', '114%'),
  ('CNC1CCC(N(Cc2cccc(-c3ccncc3)c2)C(=O)c2sc3ccccc3c2Cl)CC1 (stereo not drawn)', 'NOMO1', 'cell viability', '93.2%'),
  ('Cl.Cl.Cl.O[C@@H](COc1cccc2ncccc12)CN1CCN([C@@H]2c3ccccc3[C@@H]3[C@H](c4ccccc42)C3(F)F)CC1', 'NOMO1', 'cell viability', '87.2%');

Would you mind listing cell viability for each of the following compounds?
1. CC1(C)Cc2c(-c3ccccc3)c(-c3ccc(Cl)cc3)c(CC(=O)O)n2C1
2. COC[C@H]1OC(=O)C2=COC3=C2[C@@]1(C)\C4=C(C5CCC(=O)[C@@]5(C)C[C@H]4OC(C)=O)/C3=O (stereo partly drawn)
3. CN(C)CCOc1cc(-c2cn[nH]c2)ccc1NC(=O)C1COc2ccccc2O1 (stereo not drawn)
4. CN(c1ncccc1CNc1nc(Nc2ccc3c(c2)CC(=O)N3)ncc1C(F)(F)F)[S+](C)(=O)[O-]
5. FC(F)(F)c1ccc(/C=C/c2nc(COc3ccc(CCCCn4ccnn4)cc3)co2)cc1
6. O=NN(CCCl)C(=O)NC1CCCCC1

Response line:
105%
95.7%
106%
116%
122%
93.5%

Would you mind listing cell viability for each of the following compounds?
1. CNC(=O)c1ccc(-c2cnc3ncc(Cc4ccc5ncccc5c4)n3n2)cc1F
2. CC1=CC=CC=C1N2\C(=N/C3=C(C(=CC=C3)C)C2=O)C[N]4C=NC5=C4N=CN=C5N
3. Cc1nc(NC(=O)N2CCC[C@H]2C(N)=O)sc1-c1ccnc(C(C)(C)C(F)(F)F)c1
4. CC1=C(/C=C/C(C)=C/C=C/C(C)=C/C=C/C=C(C)/C=C/C=C(C)/C=C/C2=C(C)CCCC2(C)C)C(C)(C)CCC1
5. Cc1ccc(NC(=O)c2ccc(CN3CCN(C)CC3)cc2)cc1Nc1nc(-c2cccnc2)cs1
6. CN1[C@@H]2CC(OC(=O)[C@@H](CO)c3ccccc3)C[C@H]1[C@H]1O[C@H]12 (stereo partly drawn)
7. COc1ccc(CC2NCCc3cc(OC)c(OC)cc32)cc1OC (stereo not drawn)

Response line:
["138%", "109%", "82.2%", "129%", "98.6%", "98.8%", "83.9%"]
